Test system: human CD33
Experiment: Biacore SPR binding kinetics of anti-CD33 scFv-Fc clones with or without 10 µM MTX
Details: CD33; 0 µM MTX; 37° C., pH 7.4; scFv-Fc
quantity: kon, kinetics toward antigen with 0 µM MTX

Prompt: Consider the molecule shown here: P02_E11: anti-CD33 clone with conditional affinity; VH SEQ ID NO: 15, VL SEQ ID NO: 16; also as scFv in CAR (antibody, V domains shown, Synthetic Antibody, also as scFv in CAR) VH: QVQLVESGGGLVQAGGSLRLSCAASRRSSRSWAMHWVRQAPGKGLEWVAVISYDGRLKYYADSVKGRFTISRDNAEYLVYLQMNSLRAEDTAVYYCAAEASTDNGLDYWGQGTLVTVSS VL: DIQMTQSPSSLSASVGDRVTITCRASQTISRHLNWYQQKPGKAPKLLIYSASSLASGVPSRFSGSGSGTDFTLTISSLQPEDFATYYCQQSHSAGTFGQGTKVEIK What is its recorded kon, kinetics toward antigen with 0 µM MTX?
Response: 58000 M⁻¹ s⁻¹

Prompt: Give the measured kon, kinetics toward antigen with 0 µM MTX of P04_C09: anti-CD33 clone with conditional affinity; VH SEQ ID NO: 23, VL SEQ ID NO: 24 (antibody, V domains shown, Synthetic Antibody) VH: QVQLVESGGGLVQAGGSLRLSCAASRRSSRSWAMHWVRQAPGKGLEWVAVISYDGRLKYYADSVKGRFTISRDNAEYLVYLQMNSLRAEDTAVYYCAAEANESDSGGIDVWGQGTLVTVSS VL: DIQMTQSPSSLSASVGDRVTITCRASQTIGGYLNWYQQKPGKAPKLLIYAASSLQSGVPSRFSGSGSGTDFTLTISSLQPEDFATYYCQQGYSSGAFGQGTKVEIK .
Response: 160000 M⁻¹ s⁻¹

Prompt: Form field: reported kon, kinetics toward antigen with 0 µM MTX of P03_H04: anti-CD33 clone with conditional affinity; VH SEQ ID NO: 39, VL SEQ ID NO: 40; also as scFv in CAR (antibody, V domains shown, Synthetic Antibody, also as scFv in CAR) VH: QVQLVESGGGLVQAGGSLRLSCAASRRSSRSWAMHWVRQAPGKGLEWVAVISYDGRLKYYADSVKGRFTISRDNAEYLVYLQMNSLRAEDTAVYYCAADPHDGYGGGPGFDYWGQGTLVTVSS VL: QSVLTQPPSASGTPGQRVTISCSGSSSNIGSNYVYWYQQLPGTAPKLLIYRSNQRPSGVPDRFSGSKSGTSASLAISGLRSEDEADYYCAAWDDTLSAVVFGTGTKLTVL
Response: 72000 M⁻¹ s⁻¹
